Molecular target: UniProt O15379
Sequence (O15379 whole entry): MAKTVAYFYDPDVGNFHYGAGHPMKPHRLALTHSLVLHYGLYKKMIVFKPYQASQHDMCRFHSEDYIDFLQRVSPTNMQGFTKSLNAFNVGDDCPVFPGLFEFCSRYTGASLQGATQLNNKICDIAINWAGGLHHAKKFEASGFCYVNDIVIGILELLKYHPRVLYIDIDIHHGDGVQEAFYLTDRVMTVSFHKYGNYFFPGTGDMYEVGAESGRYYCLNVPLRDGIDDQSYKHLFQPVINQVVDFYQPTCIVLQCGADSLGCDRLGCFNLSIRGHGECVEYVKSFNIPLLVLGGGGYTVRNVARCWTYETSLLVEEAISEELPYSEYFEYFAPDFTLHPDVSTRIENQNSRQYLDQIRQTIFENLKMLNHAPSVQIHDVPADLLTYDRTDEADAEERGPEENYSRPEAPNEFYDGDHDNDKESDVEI
Experiment: Inhibition of full length C-terminal His6x-tagged recombinant human HDAC3 expressed in baculovirus using Arg-His-Lys-Lys (Ac) as substrate after 2 hrs by fluorescence plate reader analysis
pIC50: −log10 of the molar value.
pIC50 values for the molecules below.

Illustrative cases are given below, each with its answer.
* Cn1cccc1C(=O)NCc1ccc(C(=O)NO)cc1 | 5.35
* Cn1cccc1C(=O)N1CCc2cc(C(=O)NO)ccc2C1 | 4.34
* Cn1cccc1C(=O)N1Cc2ccc(C(=O)NO)cc2C1 | < 4.30
* CC(C)(C)C(=O)N1Cc2ccc(C(=O)NO)cc2C1 | < 4.30
* CC(C)(C)C(=O)N1CCc2cc(C(=O)NO)ccc2C1 | < 4.30

From here, focus on the item given below.
# molecule Cn1cccc1C(=O)N1CCCc2cc(C(=O)NO)ccc2C1 ; its pIC50 = < 4.30

* * *

Molecular target: Polyamine deacetylase HDAC10 (Homo sapiens, UniProt Q969S8)
Sequence (Q969S8 whole entry): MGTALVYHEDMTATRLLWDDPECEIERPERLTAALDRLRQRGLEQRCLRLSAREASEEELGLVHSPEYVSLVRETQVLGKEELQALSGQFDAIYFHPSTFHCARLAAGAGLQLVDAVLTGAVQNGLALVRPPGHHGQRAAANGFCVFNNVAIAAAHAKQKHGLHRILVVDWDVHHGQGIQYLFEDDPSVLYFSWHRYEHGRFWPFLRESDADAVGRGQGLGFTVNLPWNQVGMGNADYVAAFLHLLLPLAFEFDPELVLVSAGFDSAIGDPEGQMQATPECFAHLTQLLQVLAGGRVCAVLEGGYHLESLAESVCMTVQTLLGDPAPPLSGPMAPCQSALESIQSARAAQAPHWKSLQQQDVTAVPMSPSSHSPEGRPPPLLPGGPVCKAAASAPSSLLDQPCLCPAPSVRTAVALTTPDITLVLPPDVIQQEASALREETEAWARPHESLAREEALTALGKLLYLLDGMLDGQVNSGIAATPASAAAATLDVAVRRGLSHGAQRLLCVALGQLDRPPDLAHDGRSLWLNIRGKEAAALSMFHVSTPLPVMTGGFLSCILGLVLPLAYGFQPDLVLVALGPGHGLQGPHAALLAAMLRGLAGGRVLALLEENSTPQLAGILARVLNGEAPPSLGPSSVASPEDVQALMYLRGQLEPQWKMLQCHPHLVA
Assay: Inhibition of N-terminal GST-tagged recombinant human HDAC10 (1 to 481) expressed in baculovirus using Arg-His-Lys-Lys (Ac) as substrate after 1 hr by fluorescence plate reader analysis
pIC50: −log10 of the molar value.
The entries below come with measured pIC50 values attached.

- Cn1cccc1C(=O)N1CCCc2cc(C(=O)NO)ccc2C1: < 4.30
- CC(C)(C)C(=O)N1CCc2cc(C(=O)NO)ccc2C1: < 4.30
- Cn1cccc1C(=O)N1Cc2ccc(C(=O)NO)cc2C1: < 4.30

Lab note: Cn1cccc1C(=O)NCc1ccc(C(=O)NO)cc1 gave pIC50 of 5.43

Given item CC(C)(C)C(=O)N1Cc2ccc(C(=O)NO)cc2C1 , the value recorded as its pIC50 is < 4.30

So, Cn1cccc1C(=O)N1CCc2cc(C(=O)NO)ccc2C1 ? Its pIC50 was < 4.30

* * *

Target: Protein deacetylase HDAC6 (Homo sapiens, UniProt Q9UBN7)
Sequence (Q9UBN7 whole entry): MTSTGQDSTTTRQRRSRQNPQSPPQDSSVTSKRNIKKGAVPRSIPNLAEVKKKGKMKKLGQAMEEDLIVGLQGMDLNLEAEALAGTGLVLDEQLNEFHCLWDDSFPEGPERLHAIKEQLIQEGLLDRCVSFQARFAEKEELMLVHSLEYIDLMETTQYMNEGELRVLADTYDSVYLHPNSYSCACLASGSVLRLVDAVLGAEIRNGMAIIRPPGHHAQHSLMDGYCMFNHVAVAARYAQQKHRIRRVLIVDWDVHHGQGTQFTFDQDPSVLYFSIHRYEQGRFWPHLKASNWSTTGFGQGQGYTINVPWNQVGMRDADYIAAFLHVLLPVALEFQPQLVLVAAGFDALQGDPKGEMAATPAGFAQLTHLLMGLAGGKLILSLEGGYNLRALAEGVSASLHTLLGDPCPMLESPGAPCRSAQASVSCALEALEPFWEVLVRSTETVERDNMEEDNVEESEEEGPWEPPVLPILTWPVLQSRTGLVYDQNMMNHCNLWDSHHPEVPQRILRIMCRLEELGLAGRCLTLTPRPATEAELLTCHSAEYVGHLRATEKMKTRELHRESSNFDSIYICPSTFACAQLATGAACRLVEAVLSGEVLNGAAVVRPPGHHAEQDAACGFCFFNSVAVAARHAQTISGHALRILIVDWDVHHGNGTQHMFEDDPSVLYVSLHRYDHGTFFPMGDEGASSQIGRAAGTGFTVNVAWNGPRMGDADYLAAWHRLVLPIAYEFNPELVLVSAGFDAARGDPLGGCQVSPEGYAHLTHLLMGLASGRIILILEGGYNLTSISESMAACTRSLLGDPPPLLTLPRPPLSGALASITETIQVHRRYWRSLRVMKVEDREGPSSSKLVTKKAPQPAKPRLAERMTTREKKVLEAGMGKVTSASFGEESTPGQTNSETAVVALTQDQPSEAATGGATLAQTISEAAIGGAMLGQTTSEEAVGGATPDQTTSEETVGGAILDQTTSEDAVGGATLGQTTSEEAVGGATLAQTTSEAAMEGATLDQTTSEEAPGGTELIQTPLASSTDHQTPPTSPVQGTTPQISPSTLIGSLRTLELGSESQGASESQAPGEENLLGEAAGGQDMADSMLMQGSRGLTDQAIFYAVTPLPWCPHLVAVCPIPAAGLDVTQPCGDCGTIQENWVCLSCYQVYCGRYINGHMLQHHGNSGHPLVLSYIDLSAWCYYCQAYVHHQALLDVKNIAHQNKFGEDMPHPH
Test: Inhibition of HDAC6 in human HeLa cells using acetyl tubulin as substrate assessed as Ac-tubulin accumulation in cytosol after 6 hrs by immunofluorescence assay
ENDPOINT_LABEL: IC50 (µM)

• Cn1cccc1C(=O)N1CCCc2cc(C(=O)NO)ccc2C1 = 1.48
• Cn1cccc1C(=O)NCc1ccc(C(=O)NO)cc1 = 0.46

a. O=C(NO)c1ccc2c(c1)CCN(C(=O)c1ccc(-c3ccccc3)cc1)CC2
b. O=C(NO)c1ccc2c(c1)CCN(C(=O)C1CCCCCC1)C2
Prompt line: Recorded IC50 values differ for a and b ; which one is higher? Lab note: record the label of whichever item you select.
Response line: a

P. Cn1cccc1C(=O)N1CCc2cc(C(=O)NO)sc2C1
Q. CC(C)(C)C(=O)N1CCCc2cc(C(=O)NO)ccc2C1
Prompt line: // task: argmin of IC50 over [ P , Q ] State your choice using its label.
Response line: P
(P: 0.005 µM, Q: 3.68 µM)

* * *

Target: UniProt Q9BY41
Sequence (Q9BY41 whole entry): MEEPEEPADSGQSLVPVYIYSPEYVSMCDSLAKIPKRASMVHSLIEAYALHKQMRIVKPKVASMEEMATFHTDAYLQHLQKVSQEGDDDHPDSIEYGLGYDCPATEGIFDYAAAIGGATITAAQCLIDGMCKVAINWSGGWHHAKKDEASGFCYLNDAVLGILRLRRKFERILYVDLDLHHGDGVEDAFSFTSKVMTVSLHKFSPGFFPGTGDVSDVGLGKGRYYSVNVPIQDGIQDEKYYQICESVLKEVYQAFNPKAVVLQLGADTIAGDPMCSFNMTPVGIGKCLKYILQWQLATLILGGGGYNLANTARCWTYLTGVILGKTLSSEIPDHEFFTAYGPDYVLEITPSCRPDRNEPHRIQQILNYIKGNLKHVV
Test: Inhibition of full length C-terminal His6x-tagged recombinant human HDAC8 expressed in baculovirus using Arg-His-Lys(Ac)-Lys(Ac) as substrate after 1 hr by fluorescence plate reader analysis
pIC50: −log10 of the molar value.
ENDPOINT_LABEL: pIC50

Answered cases to consult:
* Cn1cccc1C(=O)NCc1ccc(C(=O)NO)cc1 | 6.16
* CC(C)(C)C(=O)N1CCc2cc(C(=O)NO)ccc2C1 | 5.68
* Cn1cccc1C(=O)N1CCCc2cc(C(=O)NO)ccc2C1 | 6.05
* Cn1cccc1C(=O)N1Cc2ccc(C(=O)NO)cc2C1 | 5.89

1. CC(C)(C)C(=O)N1Cc2ccc(C(=O)NO)cc2C1
2. Cn1cccc1C(=O)N1CCc2cc(C(=O)NO)ccc2C1
Prompt line: Between 1 and 2 , whose recorded pIC50 is greater? Please respond with the label that marks your chosen entry.
Response line: 1
(1: 5.89, 2: 5.68)

* * *

Quick reference: IC50 of the listed items.
Molecular target: Histone deacetylase 1 (Homo sapiens)
Sequence (Q13547 whole entry): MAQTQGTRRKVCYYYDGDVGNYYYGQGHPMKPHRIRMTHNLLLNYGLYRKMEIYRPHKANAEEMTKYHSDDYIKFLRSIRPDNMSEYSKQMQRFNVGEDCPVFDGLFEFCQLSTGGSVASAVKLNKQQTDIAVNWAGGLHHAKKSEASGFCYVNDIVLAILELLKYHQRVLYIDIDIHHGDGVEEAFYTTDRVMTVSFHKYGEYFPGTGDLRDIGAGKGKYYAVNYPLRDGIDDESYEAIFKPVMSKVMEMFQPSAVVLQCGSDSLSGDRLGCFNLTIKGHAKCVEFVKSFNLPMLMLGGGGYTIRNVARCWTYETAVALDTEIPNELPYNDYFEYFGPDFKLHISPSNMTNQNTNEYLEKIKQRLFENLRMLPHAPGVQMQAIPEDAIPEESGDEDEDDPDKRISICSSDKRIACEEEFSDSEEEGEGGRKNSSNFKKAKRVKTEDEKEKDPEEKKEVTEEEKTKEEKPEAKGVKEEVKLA
Experiment: Inhibition of full length GST-tagged recombinant human HDAC1 expressed in baculovirus using Arg-His-Lys-Lys (Ac) as substrate after 2 hrs by fluorescence plate reader analysis

Sample records with IC50:
* Cn1cccc1C(=O)NCc1ccc(C(=O)NO)cc1 | 5.8 µM
* Cn1cccc1C(=O)N1CCCc2cc(C(=O)NO)ccc2C1 | > 50 µM
* Cn1cccc1C(=O)N1CCc2cc(C(=O)NO)ccc2C1 | 45 µM
* CC(C)(C)C(=O)N1CCc2cc(C(=O)NO)ccc2C1 | > 50 µM
* Cn1cccc1C(=O)N1Cc2ccc(C(=O)NO)cc2C1 | > 50 µM

// below: IC50 requested for another compound
The reported value for CC(C)(C)C(=O)N1Cc2ccc(C(=O)NO)cc2C1 in terms of IC50 is > 50 µM

* * *

Organism: Homo sapiens
Test: Selectivity ratio of IC50 for full length C-terminal His6x-tagged recombinant human HDAC8 to IC50 for N-terminal GST-tagged recombinant HDAC6 (unknown origin)
ENDPOINT_LABEL: Ratio IC50

- Cn1cccc1C(=O)NCc1ccc(C(=O)NO)s1: 40
- Cn1cccc1C(=O)NCc1ncc(C(=O)NO)s1: 40
- Cn1cccc1C(=O)N1CCc2ccc(C(=O)NO)cc2CC1: 40
- O=C(NO)c1cc2c(s1)CCN(C(=O)C1CCCCC1)C2: 40
- O=C(NO)c1ccc2c(c1)CCCN(C(=O)c1ccc(-c3ccccc3)cc1)C2: 40
- O=C(NO)c1ccc2c(c1)CCCN(C(=O)C1CCCCCC1)C2: 40
- CC(C)(C)C(=O)N1CCc2ccc(C(=O)NO)cc2CC1: 40

* * *

Molecular target: Histone deacetylase 7 (Homo sapiens)
Sequence (Q8WUI4 whole entry): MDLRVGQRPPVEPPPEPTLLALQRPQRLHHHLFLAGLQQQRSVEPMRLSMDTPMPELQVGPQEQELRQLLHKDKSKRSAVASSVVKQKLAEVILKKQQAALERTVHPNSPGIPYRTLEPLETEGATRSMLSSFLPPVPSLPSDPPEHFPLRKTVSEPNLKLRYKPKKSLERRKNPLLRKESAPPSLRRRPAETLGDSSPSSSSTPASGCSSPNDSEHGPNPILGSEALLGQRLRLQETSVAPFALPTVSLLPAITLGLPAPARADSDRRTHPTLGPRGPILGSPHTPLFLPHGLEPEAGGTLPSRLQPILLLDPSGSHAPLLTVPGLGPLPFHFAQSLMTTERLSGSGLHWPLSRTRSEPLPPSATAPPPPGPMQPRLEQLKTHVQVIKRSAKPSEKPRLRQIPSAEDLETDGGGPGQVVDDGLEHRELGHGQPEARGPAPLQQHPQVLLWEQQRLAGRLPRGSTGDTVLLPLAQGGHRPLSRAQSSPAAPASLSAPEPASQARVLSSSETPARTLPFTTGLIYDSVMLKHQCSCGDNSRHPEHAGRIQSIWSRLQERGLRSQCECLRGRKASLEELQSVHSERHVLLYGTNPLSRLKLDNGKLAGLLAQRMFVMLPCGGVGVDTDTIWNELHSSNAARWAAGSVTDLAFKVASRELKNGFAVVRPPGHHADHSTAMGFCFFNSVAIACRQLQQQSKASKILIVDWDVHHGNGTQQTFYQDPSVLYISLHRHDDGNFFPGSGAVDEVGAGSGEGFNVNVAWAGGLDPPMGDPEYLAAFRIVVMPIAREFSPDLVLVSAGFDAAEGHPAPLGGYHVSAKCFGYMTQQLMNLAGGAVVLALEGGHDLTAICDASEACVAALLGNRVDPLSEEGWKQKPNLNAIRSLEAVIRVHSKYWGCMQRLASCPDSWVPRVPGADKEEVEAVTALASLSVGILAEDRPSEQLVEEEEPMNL
Experiment: Inhibition of N-terminal GST-tagged recombinant human HDAC7 (518) expressed in baculovirus using acetyl-Lys(trifluoroacetyl)-AMC as substrate after 1 hr by fluorescence plate reader analysis
Quick reference: IC50 of the listed items.

Form field IC50, entry CC(C)(C)C(=O)N1Cc2ccc(C(=O)NO)cc2C1 : > 50 µM

Entry Cn1cccc1C(=O)NCc1ccc(C(=O)NO)cc1 ; IC50 = 4.6 µM

The value of IC50 measured for the compound Cn1cccc1C(=O)N1Cc2ccc(C(=O)NO)cc2C1 turned out to be > 50 µM

Item: Cn1cccc1C(=O)N1CCc2cc(C(=O)NO)ccc2C1 | IC50: > 50 µM

// recorded IC50 for Cn1cccc1C(=O)N1CCCc2cc(C(=O)NO)ccc2C1 : > 50 µM

// CC(C)(C)C(=O)N1CCc2cc(C(=O)NO)ccc2C1 : IC50 value = > 50 µM
